# Protocol notes: reduced absorbance of E. coli cultures with phage – HTS, RecBCD inhibitor project, primary screen (AID 651602)
# Study conditions: growth absorbance, at 11.9 µM, stronger effect = higher value
In all, about 360,000 compounds went through this assay and about 950 (0.26%) were called active. The sample as a whole holds a higher share of actives than the screen did.
Readout: inhibition

Which value of inhibition has been reported for CC(C)(C)C(=O)Nc1c(Br)c(C2CC2)nn1-c1ccccc1 in the records?
97.8% (active)

Which value of inhibition has been reported for COCCCNC(=O)C[C@H]1C[C@@]2(C(=O)OC)C(=C[C@H](C(C)(C)C)O[C@@H]2C)N(Cc2ccc3c(c2)OCO3)C1=O in the records?
0.08% (inactive)

Which value of inhibition has been reported for O=C(CO/N=C/c1ccccc1O)NNC(=O)c1ccccc1Cl in the records?
0.32% (inactive)

Which value of inhibition has been reported for O=C(NCc1ccccc1)[C@H]1CCCN1C(=O)[C@H]1CCCN1C(=O)c1cc(F)cc(F)c1 in the records?
2.09% (inactive)

Which value of inhibition has been reported for CC1CCCN(c2cccc3c2S(=O)(=O)N(Cc2ccc(F)cc2)[C@@H](C)[C@H](c2ccccc2)O3)C1 (some centres undefined) in the records?
1.59% (inactive)

Which value of inhibition has been reported for O=C(Nc1c(Cl)c(C2CC2)nn1-c1ccccc1)C(Cl)(Cl)Cl in the records?
1.86% (inactive)

Which value of inhibition has been reported for O=C(NN=Cc1ccccc1O)NN=Cc1ccccc1O in the records?
12.4% (active)

Which value of inhibition has been reported for CCCCCCCCN1C(=O)[C@@H](CC(=O)N2CCN(C(=O)OCC)CC2)C[C@@]2(C(=O)OC)C1=C[C@H](C1CCCC1)O[C@@H]2C in the records?
0.85% (inactive)

Which value of inhibition has been reported for CC(C)(C)n1nc(C2CC2)c(Br)c1NC(=O)c1ccccc1F in the records?
3.69% (inactive)
